Target: E3 ubiquitin-protein ligase XIAP (Homo sapiens) (UniProt P98170)
Sequence (P98170 whole entry, looked up): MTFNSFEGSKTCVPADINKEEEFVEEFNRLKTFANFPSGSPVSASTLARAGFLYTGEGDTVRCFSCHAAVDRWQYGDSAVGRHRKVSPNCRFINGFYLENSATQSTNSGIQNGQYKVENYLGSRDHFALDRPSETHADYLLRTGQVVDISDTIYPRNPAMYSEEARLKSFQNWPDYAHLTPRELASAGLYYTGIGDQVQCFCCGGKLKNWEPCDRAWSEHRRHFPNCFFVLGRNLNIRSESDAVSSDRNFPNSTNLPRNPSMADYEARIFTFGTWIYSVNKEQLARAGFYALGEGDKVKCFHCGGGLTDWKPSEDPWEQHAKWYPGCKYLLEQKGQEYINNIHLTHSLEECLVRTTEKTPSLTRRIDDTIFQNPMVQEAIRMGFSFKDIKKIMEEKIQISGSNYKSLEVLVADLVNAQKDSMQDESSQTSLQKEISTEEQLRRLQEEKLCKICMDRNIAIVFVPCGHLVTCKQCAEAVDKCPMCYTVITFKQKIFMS
Assay: small molecules binding XIAP protein – biophysical, small-molecule microarray, fluorescence 635 nm, primary screen (AID 1181);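 further: score merges 667 nm emission and signal to noise over triplicate slides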
Conditions: higher = more signal

# compound, assayed.target, composite z-score
data = [
    ("C=CCCN(CC#C[C@H]1Oc2ccccc2S(=O)(=O)N2CCC[C@@H]12)S(=O)(=O)c1ccc(C)cc1", "E3 ubiquitin-protein ligase XIAP (Homo sapiens) (UniProt P98170)", 0.0027),
    ("CCOC(=O)C1=CC[C@@H](c2ccccc2)N(S(=O)(=O)c2ccc(C)cc2)[C@H]1c1ccc(C#N)cc1", "E3 ubiquitin-protein ligase XIAP (Homo sapiens) (UniProt P98170)", 0.0123),
    ("C[C@H]1C2[C@H](Cc3ccccc3)NC(=O)[C@]23C(=O)N[C@H](Cc2ccccc2)C(=O)N[C@H](Cc2ccccc2)C(=O)NC/C=C/CCC/C=C/C3[C@@H]2O[C@]12C (stereo not given in full)", "E3 ubiquitin-protein ligase XIAP (Homo sapiens) (UniProt P98170)", -0.0807),
    ("CCCNC(=O)[C@@]1(C)c2ccccc2C(=O)N(Cc2cc(F)cc(C(F)(F)F)c2)[C@H]1c1ccc(CO)cc1", "E3 ubiquitin-protein ligase XIAP (Homo sapiens) (UniProt P98170)", -0.181),
    ("O=C1O[C@@H](c2ccccc2)[C@@H](c2ccccc2)N2[C@@H](c3ccccc3OCCO)[C@]3(C(=O)Nc4ccc(C#CC5(O)CCCCCC5)cc43)[C@@H](C(=O)NC[C@H](O)c3ccccc3)[C@H]12", "E3 ubiquitin-protein ligase XIAP (Homo sapiens) (UniProt P98170)", 0.0264),
    ("CCOC(=O)C1=CC[C@@H](c2cccc(Cl)c2)N(S(=O)(=O)c2ccc(C)cc2)[C@H]1c1ccc(C#N)cc1", "E3 ubiquitin-protein ligase XIAP (Homo sapiens) (UniProt P98170)", -0.38),
    ("COc1cc(NN2C(C(O)c3ccccc3)C=CC3C(=O)N(c4ccccc4)C(=O)C32)cc(OC)c1OC (stereo not given)", "E3 ubiquitin-protein ligase XIAP (Homo sapiens) (UniProt P98170)", 0.219),
    ("NC(=O)NCC#Cc1ccc2c(c1)[C@]1(C(=O)N2)[C@H](C(=O)NC[C@H](O)c2ccccc2)[C@H]2C(=O)O[C@H](c3ccccc3)[C@H](c3ccccc3)N2[C@@H]1c1ccccc1OCCO", "E3 ubiquitin-protein ligase XIAP (Homo sapiens) (UniProt P98170)", 0.0864),
    ("COC(=O)c1c(CC[C@@H](CO)NC(=O)Nc2ncn[nH]2)oc(C(=O)Cc2ccccc2)c1C(=O)OC", "E3 ubiquitin-protein ligase XIAP (Homo sapiens) (UniProt P98170)", -0.0952),
    ("C/C=C/[C@H](CCn1cc([C@H](O)c2ccccc2)nn1)[Si](C)(C)c1ccc(OC)cc1", "E3 ubiquitin-protein ligase XIAP (Homo sapiens) (UniProt P98170)", -0.0936),
    ("COCCOC(=O)N1C(=O)[C@@]2(c3cc(C#CCCO)ccc31)[C@H](C(=O)NC[C@H](O)c1ccccc1)[C@H]1C(=O)O[C@H](c3ccccc3)[C@H](c3ccccc3)N1[C@@H]2c1ccc(OCCO)cc1", "E3 ubiquitin-protein ligase XIAP (Homo sapiens) (UniProt P98170)", 0.275),
    ("CC(C)(C)OC(=O)CC[C@@]1(C(N)=O)N=C(c2ccc(OCCCO)cc2)O[C@@H]1c1ccccc1N=[N+]=[N-]", "E3 ubiquitin-protein ligase XIAP (Homo sapiens) (UniProt P98170)", 0.0908),
    ("CC(C)C(O)C1C=CC2C(=O)N(C)C(=O)C2N1N1CCCCC1 (stereo not given)", "E3 ubiquitin-protein ligase XIAP (Homo sapiens) (UniProt P98170)", -0.0448),
    ("CN1C(=O)C2C=CC(C(O)C3=C[C@H]4C[C@@H](C3)C4(C)C)N(Nc3ccc([N+](=O)[O-])cc3[N+](=O)[O-])C2C1=O (stereo not given in full)", "E3 ubiquitin-protein ligase XIAP (Homo sapiens) (UniProt P98170)", 0.772),
    ("COC(=O)[C@@]1(Cc2ccc(F)cc2)[C@H]2c3cc(C(=O)N(C)C)n(CCCNc4ccc(C(F)(F)F)cc4Cl)c3C[C@H]2CN1C(=O)c1ccccc1", "E3 ubiquitin-protein ligase XIAP (Homo sapiens) (UniProt P98170)", 0.143),
]
